- Subject of test: Uracil-DNA glycosylase (Homo sapiens) (UniProt P13051)
- Sequence (P13051 whole entry): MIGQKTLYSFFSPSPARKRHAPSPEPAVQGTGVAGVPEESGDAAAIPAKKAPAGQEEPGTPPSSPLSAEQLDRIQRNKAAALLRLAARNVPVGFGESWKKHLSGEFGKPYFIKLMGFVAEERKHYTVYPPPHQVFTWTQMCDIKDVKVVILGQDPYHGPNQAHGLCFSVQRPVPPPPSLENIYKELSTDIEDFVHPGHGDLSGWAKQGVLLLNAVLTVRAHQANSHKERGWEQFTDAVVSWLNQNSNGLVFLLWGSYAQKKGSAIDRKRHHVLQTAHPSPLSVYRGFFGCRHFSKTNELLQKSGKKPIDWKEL
- Test settings: Compound Concentration 10.0 uM, Hit No
- Description: Inhibition of UNG by quantifying inhibition of UNG-mediated cleavage and dissociation of quenched duplex DNA oligonucleotides, measured as fluorescence at 594 nm. To generate a functional strand incision and increase turn-over this assay is coupled to APE1.
Overview of recorded inhibition for various compounds
Readout type: inhibition (%)

INSERT INTO assay_data (compound, result_unit, obs_value) VALUES
  ('Nc1nc2cc(-c3cc(Cl)ccc3Oc3cc(F)c(S(=O)(=O)Nc4ncns4)cc3F)ccc2[nH]1', '%', 1.83),
  ('CCCCCNC(=N)N/N=C/c1c[nH]c2ccc(OC)cc12', '%', -3.68),
  ('CN1CCN(Cc2ccc(-c3cccc(C(=O)Nc4ccccc4CC(=O)O)c3)cc2)CC1', '%', -2.65),
  ('COc1cc2nc(N(C)CCCNC(=O)C3CCCO3)nc(N)c2cc1OC (centres undefined)', '%', -4.94),
  ('COc1cccc(OC)c1-c1cc(C(=O)NC2(C(=O)O)C3CC4CC(C3)CC2C4)nn1-c1ccc(C(=O)N(C)CCCN(C)C)cc1C(C)C (centres undefined)', '%', -7.25),
  ('O=C(Nc1ccc(Cl)cc1)N[C@@H](Cc1ccccc1)C(=O)N1CCCCC1', '%', -3.64),
  ('COc1ccccc1S(=O)(=O)Nc1ccc(C)cc1Oc1ccc2c(N)nccc2c1', '%', -1.95),
  ('Cc1ccccc1Oc1cc(-n2c(=O)cc(C(F)(F)F)[nH]c2=O)c2ccccc2c1Cl', '%', -2.65),
  ('Nc1nc2c(c(N3CCNCC3)n1)CCC1=C2[C@@H]2CCCC[C@@H]2O1', '%', -2.85),
  ('COc1nc2ccc([C@@](O)(c3ccccc3)C3CCN(C(C)=O)CC3)cc2c(Cl)c1Cc1ccc(-n2cccn2)cc1', '%', 10.2),
  ('CCCCCC(O)/C=C/[C@H]1C(=O)CC(O)C1C/C=C\CCCC(=O)O (some centres undefined)', '%', -3.89),
  ('COc1ccc(OC(=O)N(CC(=O)O)Cc2ccc(OCCc3nc(-c4ccccc4)oc3C)cc2)cc1', '%', 3.56),
  ('CCOC(=O)C1Cc2ccccc2CN1C(=O)c1ccc(SC)s1 (centres undefined)', '%', 0.734),
  ('COC(=O)[C@H](CCCN=C(N)N)NC(=O)CCCc1c(-c2ccccc2)[nH]c2c(F)cc(F)cc12', '%', -5.65),
  ('COc1ccc2c(c1)O[C@@H](c1ccc(OC)c(OC)c1)C[C@H]2NC(=O)C1(c2ccc3c(c2)OC(F)(F)O3)CC1', '%', -6.88),
  ('CC[C@H](NC(=O)c1c(C)c(-c2ccccc2)nc2ccccc12)c1ccccc1', '%', -6.75),
  ('O=S(=O)(c1ccccc1)N(CC(F)(F)F)c1ccc(C(O)(C(F)(F)F)C(F)(F)F)cc1', '%', -2.07),
  ('Cc1cc2c(-c3ccco3)cnc(N[C@H]3CCN(C)C[C@@H]3C(=O)NC3CCCCC3)c2[nH]c1=O', '%', -1.62),
  ('COc1cc(OC)c(NC(=O)Nc2cc(C)on2)cc1Cl', '%', -3.91);

---

- Subject of test: UniProt:P29372
- Sequence (P29372 whole entry): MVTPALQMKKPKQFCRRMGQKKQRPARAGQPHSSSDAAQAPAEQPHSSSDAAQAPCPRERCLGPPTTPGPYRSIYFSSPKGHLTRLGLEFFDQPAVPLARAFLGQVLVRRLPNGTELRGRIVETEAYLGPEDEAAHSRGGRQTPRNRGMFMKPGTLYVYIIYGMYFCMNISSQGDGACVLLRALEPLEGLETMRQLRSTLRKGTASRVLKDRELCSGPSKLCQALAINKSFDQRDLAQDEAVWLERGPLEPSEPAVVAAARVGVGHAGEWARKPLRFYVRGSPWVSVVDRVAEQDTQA
- Test settings: Compound Concentration 10.0 uM, Hit No
- Description: Inhibition of MPG by quantifying inhibition of MPG-mediated cleavage and dissociation of quenched duplex DNA oligonucleotides, measured as fluorescence at 594 nm. To generate a functional strand incision and increase turn-over this assay is coupled to APE1.
Readout type: inhibition

INSERT INTO assay_data (molecule, subject_of_test, obs_value) VALUES
  ('CC(C)NCC(O)COc1cccc2[nH]ccc12 (centres undefined)', 'UniProt:P29372', '6.08%'),
  ('CCOC(=O)N1CCC(c2cc(O)n3nc(C)c(-c4ccc(F)cc4)c3n2)CC1', 'UniProt:P29372', '38.1%'),
  ('COc1ccc2c(c1)C(C(=O)N(Cc1ccc(N(C)C)cc1)c1ccc(C(C)C)cc1)CCC2 (centres undefined)', 'UniProt:P29372', '34.2%'),
  ('CNc1nc(NCc2ccc(NS(C)(=O)=O)cc2Cl)cc(-c2ccccn2)n1', 'UniProt:P29372', '-5.26%'),
  ('CN(C)C(=O)c1cc2cnc(Nc3ccc(N4CCNCC4)cn3)nc2n1C1CCCC1', 'UniProt:P29372', '59.5%'),
  ('Cc1ccnc(Nc2nc(-c3ccccn3)cs2)c1', 'UniProt:P29372', '16%'),
  ('O=C(Cc1ccccc1)Nc1nc2ccc(Cl)cc2c2nc(-c3ccco3)nn12', 'UniProt:P29372', '6.12%'),
  ('c1ccc2c(c1)CCC[C@H]2Nc1nc2ccccc2[nH]1', 'UniProt:P29372', '9.2%'),
  ('COC(=O)[C@H](CCCN=C(N)N)NC(=O)CCCc1c(-c2ccccc2)[nH]c2c(F)cc(F)cc12', 'UniProt:P29372', '5.31%'),
  ('O=C(O)CCC/C=C\C[C@H]1C(=O)C[C@@H](O)[C@@H]1/C=C/[C@@H](O)CCc1ccccc1', 'UniProt:P29372', '-3.36%'),
  ('O=S1(=O)NCN(C2CC2)c2ccc(F)cc21', 'UniProt:P29372', '3.15%'),
  ('CC[C@@H](C)Nc1nc(C)nc2c(-c3ccc(OC)nc3C)c(C)nn12', 'UniProt:P29372', '9.17%'),
  ('Cc1cccc(S(=O)(=O)N(C)[C@H](C)CCN2CCC(C)CC2)c1', 'UniProt:P29372', '-2.23%'),
  ('O=c1ccc2c(OCCCCOc3ccccc3)c3ccoc3cc2o1', 'UniProt:P29372', '29.9%'),
  ('C[C@H](N)Cn1ccc2cc(F)c(Cl)cc21', 'UniProt:P29372', '-5.64%'),
  ('CC1(C)CCC[C@]2(C)[C@@H](C=O)C(C=O)=CC[C@@H]12', 'UniProt:P29372', '14.4%'),
  ('C[C@H](NC(=O)[C@H](Cc1ccccc1)NC(=O)[C@H](CCC(N)=O)NC(=O)CNC(=O)[C@@H]1CCCN1C(=O)[C@H](Cc1ccccc1)NC(=O)[C@@H](N)Cc1ccc(O)cc1)C(=O)N[C@@H](Cc1ccccc1)C(=O)N[C@@H](CO)C(=O)O', 'UniProt:P29372', '6.08%'),
  ('CC(C)(O)c1cnc(N2C[C@@]3(CCC[C@](C)(Cn4cnc5ccc(C#N)cc54)C3)OC2=O)cn1', 'UniProt:P29372', '10.5%'),
  ('CN(C(=O)/C=C/c1ccoc1)[C@@H]1CC[C@@]2(O)[C@H]3Cc4ccc(O)c5c4[C@@]2(CCN3CC2CC2)[C@H]1O5', 'UniProt:P29372', '5.81%');
